ASSAY SYSTEM: human recombinant mGluR5 (Homo sapiens, UniProt P41594)
Construct: tetracycline removed 3-7 days before the assay
Sequence (P41594 21-1212): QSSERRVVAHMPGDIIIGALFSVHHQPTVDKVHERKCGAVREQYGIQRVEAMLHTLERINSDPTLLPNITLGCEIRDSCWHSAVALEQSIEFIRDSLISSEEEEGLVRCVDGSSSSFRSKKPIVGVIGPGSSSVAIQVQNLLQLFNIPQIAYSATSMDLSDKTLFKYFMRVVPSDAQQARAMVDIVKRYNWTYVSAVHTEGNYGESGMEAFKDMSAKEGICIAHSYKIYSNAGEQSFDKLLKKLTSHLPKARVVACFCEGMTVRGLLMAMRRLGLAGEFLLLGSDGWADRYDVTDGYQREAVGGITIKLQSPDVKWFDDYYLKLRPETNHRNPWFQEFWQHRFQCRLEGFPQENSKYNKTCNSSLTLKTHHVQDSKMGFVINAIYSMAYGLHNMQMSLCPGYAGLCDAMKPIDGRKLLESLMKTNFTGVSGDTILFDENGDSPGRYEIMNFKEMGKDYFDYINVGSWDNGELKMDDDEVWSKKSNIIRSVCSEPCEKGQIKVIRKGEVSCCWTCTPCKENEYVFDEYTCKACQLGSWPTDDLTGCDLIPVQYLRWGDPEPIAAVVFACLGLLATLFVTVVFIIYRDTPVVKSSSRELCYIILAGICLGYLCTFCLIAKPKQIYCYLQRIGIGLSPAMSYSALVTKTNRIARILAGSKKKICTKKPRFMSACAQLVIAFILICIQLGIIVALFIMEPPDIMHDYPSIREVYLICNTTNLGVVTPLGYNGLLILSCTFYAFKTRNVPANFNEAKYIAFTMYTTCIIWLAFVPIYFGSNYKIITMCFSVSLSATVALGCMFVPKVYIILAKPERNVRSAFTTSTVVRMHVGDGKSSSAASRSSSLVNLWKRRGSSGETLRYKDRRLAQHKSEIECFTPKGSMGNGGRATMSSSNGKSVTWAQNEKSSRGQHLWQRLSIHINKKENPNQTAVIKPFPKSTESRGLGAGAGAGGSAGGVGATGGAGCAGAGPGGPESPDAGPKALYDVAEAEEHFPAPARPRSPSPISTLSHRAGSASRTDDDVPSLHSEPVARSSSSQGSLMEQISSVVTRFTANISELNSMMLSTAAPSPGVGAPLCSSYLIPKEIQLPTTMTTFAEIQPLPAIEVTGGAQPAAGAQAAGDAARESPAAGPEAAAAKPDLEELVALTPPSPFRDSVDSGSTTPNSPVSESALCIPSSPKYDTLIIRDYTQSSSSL
PROTOCOL: positive modulation of mGluR5, calcium based FLIPR assay in HEK 293 cells
CONDITION PARAMETERS: HEK 293 cell line expressing human recombinant mGluR5; EC50 of the modulation of the glutamate response (glutamate approx. 5% basal stimulation); peak height of Ca release fluorescence signal
OBSERVABLE: EC50 (nM)
Write the answer as a number in nM, unit excluded.

Example entries and their recorded answers appear below.
CCCCCc1nc(-c2ccc(F)c(C)c2)nn1CC(=O)N1CCN(c2ccccn2)CC1 [Example 07.04.124.]	125
Cc1cc(-c2nc(CC(C)C)n(CC(=O)N3CCN(c4ncccn4)CC3)n2)ccc1F [Example 07.04.108.]	317
COc1nccc(N2CCN(C(=O)Cn3nc(-c4ccc(F)cc4)nc3-c3ccc(F)cc3)CC2)n1 [Example 07.03.19.]	440

Now, please, on to the next compound.
compound COc1cccc(-c2nc(-c3ccccc3)n(CC(=O)N3CCN(c4ncccn4)CC3)n2)c1 [Example 07.10.10.] , EC50 observed: 50

Values compiled from patent US8889677B2.
